Every entry's value here was drawn from patent US20260092093A1.

Molecular target: T1, hIL-18Rα ECD-Fc fusion protein (human, UniProt Q13478 22-329)
T1 construct: extracellular domain; captured on Protein A sensor
T1 sequence (looked up): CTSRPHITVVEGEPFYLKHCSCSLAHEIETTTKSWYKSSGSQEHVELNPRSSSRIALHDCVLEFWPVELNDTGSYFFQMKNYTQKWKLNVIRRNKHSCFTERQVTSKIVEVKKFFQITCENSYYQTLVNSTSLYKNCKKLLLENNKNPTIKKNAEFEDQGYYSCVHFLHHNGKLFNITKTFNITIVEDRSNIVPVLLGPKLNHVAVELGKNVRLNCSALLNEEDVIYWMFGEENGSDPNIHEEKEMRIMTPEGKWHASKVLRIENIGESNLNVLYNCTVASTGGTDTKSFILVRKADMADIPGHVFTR
Assay: BLI (Octet RED96), hIL-18Rα ECD-Fc on Protein A sensor
Consider the following binders and their measured koff readings.
A number alone suffices; assume s⁻¹.

Completed entries (count: 2):
# binder, koff [s⁻¹]
data = [
    ("IL-18 variant polypeptide M25 (ligand) YFPKLRSKLSVIRNLNDQVLFIDQGNRPLFEDMTDSDCRDNAPRTIFIISMYKLSTTRGMAVTISVKCEKISTLSCENKIISFKEMNPPDRIKDTKSDIIFFQRSVPGHDNKMQFESSSYEGYFLACEKERDLFKLILKKEDELGDRSIMFTVQNED", 0.0256),
    ("IL-18 variant polypeptide M18 (ligand) YFPKLRSKLSVIRNLNDQVLFIDQGNRPLFEDMTDSDCRDNAPRTIFIISMYKSSRRRGMAVTISVKCEKISTLSCENKIISFKEMNPPDGIKDTKSDIIFFQSSVPGHDNKMQFESSSYEGYFLACEKERDLFKLILKKEDELGDRSIMFTVQNED", 0.0134),
]

## Input Record request: koff value, item IL-18 variant polypeptide M12 (ligand) YFPKLKSKLSVIRNLNDQVLFIDQGNRPLFEDMTDSDCRDNAPRTIFIISMYKGSGARGMAVTISVKCEKISTLSCENKIISFKEMNPPDTIKDTKSDIIFFQRSVPGHDNKMQFESSSYEGYFLACEKERDLFKLILKKEDELGDRSIMFTVQNED
## Output 0.0107
